molecular target: DDB1AB-CRBN (Homo sapiens, UniProt Q96SW2); assay: Lenalidomide displacement assay (Atto565-Lenalidomide fluorescence polarization); format: binding; details: at 100 μM
Sequence (Q96SW2 whole entry): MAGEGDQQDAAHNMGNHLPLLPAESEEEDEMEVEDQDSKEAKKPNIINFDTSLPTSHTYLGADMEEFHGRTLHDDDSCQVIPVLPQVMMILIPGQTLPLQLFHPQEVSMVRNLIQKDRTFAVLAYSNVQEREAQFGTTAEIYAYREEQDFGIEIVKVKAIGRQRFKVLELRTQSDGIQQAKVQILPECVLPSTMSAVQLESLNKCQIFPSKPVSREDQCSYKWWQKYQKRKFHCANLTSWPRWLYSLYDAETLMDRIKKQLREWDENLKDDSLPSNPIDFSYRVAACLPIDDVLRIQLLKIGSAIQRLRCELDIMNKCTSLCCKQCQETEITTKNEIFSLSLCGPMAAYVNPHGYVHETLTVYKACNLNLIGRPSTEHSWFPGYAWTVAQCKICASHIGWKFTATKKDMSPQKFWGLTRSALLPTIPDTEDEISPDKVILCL
metricName: CRBN Binding, probe displacement at single concentration (% at 100 μM)

molecule	quantitativeReadout
Nc1ccc(NC(=O)NC2CCC(=O)NC2=O)nc1 (stereo not drawn) [Compound 27]	50

(a) O=C1CCC(NC(=O)c2cc(Cl)ccn2)C(=O)N1 (stereo not drawn) [Compound 4]
(b) O=C1CCC(NC(=O)c2cccc3c2NCC3)C(=O)N1 (stereo not drawn) [Compound 30]
stdin: In the pair a and b , the larger recorded CRBN Binding, probe displacement at single concentration belongs to which? # answer = label of selected item
stdout: b
(b: 50 % at 100 μM, a: 30 % at 100 μM)

(1) O=C1CCC(NC(=O)c2cccc3c(O)ccnc23)C(=O)N1 (stereo not drawn) [Compound 26]
(2) Nc1cccc(C(=O)NC2CCC(=O)NC2=O)n1 (stereo not drawn) [Compound 3]
stdin: In the pair 1 and 2 , the larger recorded CRBN Binding, probe displacement at single concentration belongs to which? # answer = label of selected item
stdout: 1
